Exercise: for every item that follows, state its recorded apparent KD of K4 kissing-loop reporter.
- Test system: K4 kissing-loop RNA reporter
- Measurement Notes: apparent KD of K4 kissing-loop reporter; higher = weaker reporter binding
- Condition Set: Eterna round: R107; input ligand: theophylline 20 uM
Numbers only, in nM.

Guide cases for apparent KD of K4 kissing-loop reporter, answers given:
>>> endpoint_result("UUGUUUUACUGAAGGAGCGGCAAUUGAUACGUAGAUAUAGUGAUGUUAUAUAAGAUAGAGAGCCAGGUAGGUCGCAGAUUUUUUU [ExArgB.V]")
185
>>> endpoint_result("AGGUCACCACUACAGUGAUGUUGUAGGGAGCAGGAUAUGCAGAAAUGCAGAAGGGCUCGCUCCCGGUGACCGAAUGAAACAUUCA [Omei KL FMN A SS A v6]")
289

The recorded apparent KD of K4 kissing-loop reporter for AAGUAGCUCUCGGCCGCCACUCCUCAGUGAUGUUGAGAUAUUAAUUGCCAAUUGGCGUAUUUAAAGAGGACCGGGAGAGCUACAA [AK3 SS Tryptophan B] is 328

* * *

Exercise: for every item that follows, state its recorded apparent KD of MS2 coat protein.
- System: MS2 coat protein
- Measurement Notes: apparent KD of MS2 coat protein; designed switch direction (-1 OFF switch, 1 ON switch): 1; higher = weaker reporter binding
- Condition Set: input ligand: FMN 200 uM
Number plus unit, in that order.

I'm hoping you can list apparent KD of MS2 coat protein for every sequence here, please.
1. GGAAUAUUUACAGGAUAUGAGUUGUAAAGUCGAUCAGAAGGGUAGGUGUCUUACACGGUGUGUUACAUGAGGAUCACCCAUGUU [SameState NG1 #20] (Eterna round: R96, puzzle: Same State NG 1)
2. UGGCUGGUGCUAGGAUAUACAUGAGGAAUCCUCGUAGAAGGAGCACGACAUGAGGAUCACCCAUGUAGCCGUCCGUAGACGGCU [salish99_SSNG1_r04_007] (Eterna round: R96, puzzle: Same State NG 1)
3. GUGGAGGGUUGAGGAUAUUGAAUACAUAUGUUUAACAUGAGGAUCACCCAUGUGGGUUGCGGUUUCGAGAAGGUAGGUUGCUGG [salish99_SSNG2_r04_040] (Eterna round: R96, puzzle: Same State NG 2)
4. AGAAUGCACAUGAGGAUCACCCAUGUACCCGGCUGGCAUUUGCAGGAUAUGCCGCGGCGAGCCCAGCAGAAGGGCAAGUGCUAA [Eternabot solution 4] (Eterna round: R96, puzzle: Same State NG 3)
5. GCGAAGAGGUAAGGAUAUGCAUGGCGUAGACAUGAGGAUCACCCAUGUAGGAGACGAAUUAGAAGGGAGAAGGUACCAGGACGC [AK SSNG2-V2-17.1] (Eterna round: R96, puzzle: Same State NG 2)

Response line:
1: 136 nM; 2: 284 nM; 3: 103 nM; 4: 25.8 nM; 5: 939 nM

I'm hoping you can list apparent KD of MS2 coat protein for every sequence here, please.
1. GCGAAAGCGGUAGGAUAUCUAGGAUAUGGGAAGGACUAAGUCUGGAGGUCACCUCACCCAGAAGGAGAGAAGGACACCGAAAGG [pwkr ssNG2 2FMN + F9.1] (Eterna round: R96, puzzle: Same State NG 2)
2. AAAGGAUGAUUAUACAUGAGGAUCACCCAUGUUUGUAAUACUAAGGAUAUGUGACUUAAUUGUGAACAGAAGGUAGGUUCAUGA [AK SSNG3-V2-1] (Eterna round: R96, puzzle: Same State NG 3)
3. ACAUGAAAUAGAGGAUAUUUUGUACCUACAUGUGACAUGAGGAUCACCCAUGUGGUAAGUAUGAGAAAGAAGGCUAAGAUAUGU [Equivalence 12 - Jieux - Same State NG 2] (Eterna round: R96, puzzle: Same State NG 2)
4. GUUAACUUGAGAGGAUAUGUAGAGGAUCACCCUACAGAAGGCUCUUUGGAGAGGAUAUGUAGAGGAUCACCCUACAGAAGGCUC [pwkr ssNG DX.6] (Eterna round: R96, puzzle: Same State NG 1)

Response line:
1. 534 nM
2. 56.8 nM
3. 18.6 nM
4. 56.5 nM

* * *

Exercise: for every item that follows, state its recorded apparent KD of K4 kissing-loop reporter.
- System: K4 kissing-loop RNA reporter;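 also: bound reporter read as fluorescence of individual clusters on recovered sequencing chips by microscopy, with normalized cluster intensities fitted with a binding model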
- Measurement Notes: apparent KD of K4 kissing-loop reporter; higher = weaker reporter binding
- Condition Set: Eterna round: R107; input ligand: arginine 13.2 mM
One number for each entry, in nM.

>>> endpoint_result("UCCUGCAAUCGCCCACGAAAGUGGAUCGAUACCAGAGUCGAAAGACUCCCUUGGCAGCGAGUGAUGUUCGAAGCAGGUAAAUAAA")
612

I'm hoping you can list apparent KD of K4 kissing-loop reporter for every sequence here, please.
1. UUUCGUCUCUGAGGAUAUCAGACGAGAGUGAUGUUCUCCCAAAGCCCAGUGAUGUUGGAUGCUAUCUGAGAAGGCAGUGGGCGAA [Same State FMN B GF 12]
2. AAACCAAUCAGAGGAUAUUCUUUAUUCGACAUAACCUUCUAUAAGGUGCAGUGAUGUUGCAAUAUAGGAGAAGGCUGAUUGACAA [Exclusion FMN B Gf 13]
3. CGGAUGUAGUGAUGUUAUAUUAGAUGUAGACGAGGACCGGUACGGCCGCCACUCGUGAUGGCUGCUAGCGCGUUGCGAGGUUUGC [ExTryptoA.Co]
4. CAGAACUUAUAUAGAAACUAUAUAAGAGAUACCAGUCAAAUUAAAGACCCUUGGCAGCUCAGGCGAGUGAUGUUCGCAGGCUAAC [Astros-Gfrank-modulation#1]
5. AAUAUAGUGAUGUUAUAUAAGAAGGAGUUACGAGGACCGGUACGGCCGCCACUCGAAACGAGUGAGGAUUUGGGAGAUUGGGUCC [SSTryptA.K]
6. AAUGUAUUCCACAUGAGUGAUGUUCAUGUGCGAGGACCGGUACGGCCGCCACUCGCAGUUGUGAUCAGUUCUGAAUACAUUAAUG [KL-XTryp-A3]

Response line:
[584, 338, 558, 94.2, 366, 225]

I'm hoping you can list apparent KD of K4 kissing-loop reporter for every sequence here, please.
1. AGGCAAUAUGCGGCCGCCACUUUCAGUGAUGUUGAGACGCGGAAUGUUGUAUAAUAUCGCCACGAAAGGACCGGGCAAGGGAAAG [theeternabot_exclusion_KL_Trp_B_5]
2. AAACGCUGUGAAUAACACAGCGAAAAUUCGCGAGGACCGGUACGGCCGCCACUCGCUAACUGCGAGUGAUGUUCGAUAAUAAAAU [Mat - Mod of OpenEnded 3 - D11]

Response line:
434
94.8

I'm hoping you can list apparent KD of K4 kissing-loop reporter for every sequence here, please.
1. ACAGGAUCGAAAGAUCCUGAGCAGUCAAACCGAGGACCGGUACGGCCGCCACUCGGAGUGAUGUUCCGAAGACUGCAAAAUAAAA [#SwitchBubble 1]
2. CAUACGCAUGGAGGAUAUGAGAUUACUCAUAUUAUUUAAUAUUCUCAGUGAUGUUGAGAUAUAAACUCAGAAGGCCAUGUGUAUG [Ex FMN B 1]

Response line:
[707, 152]

The recorded apparent KD of K4 kissing-loop reporter for GAUCUGAACGAAAGUUCGGAUCAUUCCGAUACCAGUAUGGAUUCAUACCCUUGGCAGCGGGAUUCUGCUAUGGAGUGAUGUUCCA [Theophylline A K4 15] is 332

* * *

Exercise: for every item that follows, state its recorded apparent KD of MS2 coat protein.
- Test system: MS2 coat protein
- Measurement Notes: apparent KD of MS2 coat protein; designed switch direction (-1 OFF switch, 1 ON switch): 1; higher = weaker reporter binding
- Condition Set: Eterna round: R95; input ligand: FMN 200 uM
Give bare numbers, in nM.

Guide cases for apparent KD of MS2 coat protein, answers given:
>>> endpoint_result("CGUCCGGCCUGUGCUGGCCGGUAGCAUGUACAUGAGGAUCACCCAUGUUCAUGUGCAGGCUUUUUGCUCGUCUUGUG [salish99_mir208a_r3_007] (puzzle: Sensor for hsa-mir-208a)")
34
>>> endpoint_result("GGCAGGUGCAGGCUUGCUUGCACCUGGAAACAUGAGGAUCACCCAUGUUUGGGACAAGCUUUGCUCCUCGUUUUGUC [JL ViennaUCT Isusreraar mod 3] (puzzle: Sensor for hsa-mir-208a)")
209
>>> endpoint_result("UGGCCAGCCUGUGCUGGGCUUUUGCAUGUACAUGAGGAUCACCCAUGUCGUGUUCAUGCUUUUUGCUCGUCUUUAAA [Photon Torp-03] (puzzle: Sensor for hsa-mir-208a)")
49.5
>>> endpoint_result("AAGAAAGUUUACGAGGAUAUGUUCCGCAUAACAUGAGGAUCACCCAUGUGAACAAGAAAGGCGACGCAGAAGGCGUGAGCAAAAG [Mat - Same State 2 - Mod of UCT - D97] (puzzle: Same State 2)")
105
>>> endpoint_result("AUAAGGCAAGCUUUUUUCUCGUUGUGUAAACAUGAGGAUCACCCAUGUGCUCGCCCUGGAUCUUUGGAUCGCAGAAA [Rarisooron] (puzzle: Sensor for hsa-mir-208a)")
104

I'm hoping you can list apparent KD of MS2 coat protein for every sequence here, please.
1. AGCUAUCGCGUACGAUAGCUGAAGCGUGUACAUGAGGAUCACCCAUGUCAUGUGCAGGCUUUUUGCUCGUCUUAUUG [JL-shm-2.31 JL mod] (puzzle: Sensor for hsa-mir-208a)
2. UAGAACAAGCUUUUUGCCCGUCUUAGAUAACAUGAGGAUCACCCAUGUAAGGUGAAAGUUAGAGAGUGGAGGAAGAA [JR_SHM208A_Sub054] (puzzle: Sensor for hsa-mir-208a)
3. GCACAUGCACAUGAGGAUCACCCAUGUCCCGCGCCCAUUAGGGCGCGGUGGCCGCAAGUUUUUUGCUCGUCUUAUAA [BIOPHYS241_ElaineNg_2] (puzzle: Sensor for hsa-mir-208a version 2)
4. CAUAAUAAAACGGAGGAUAUGCUACCCUUCACAUGAGGAUCACCCAUGUUACCCUCUUAUUUUCAGUAGAAGGCCGAUACAUAAC [Delilah] (puzzle: Same State 2)
5. AGUCCAGCCUGAGCUGGACAAAAGCAUGUACAUGAGGAUCACCCAUGUUCAUGUACAAGCUUUUUGCUCGUCUAAAA [Mat - hsa-mir-208a - Mod of JL - 50] (puzzle: Sensor for hsa-mir-208a)

Response line:
[640, 86.4, 29.4, 38.1, 414]
